biological target: Abl kinase (h) (Homo sapiens (Human), UniProt P00519); assay: Cerep kinase profiling, HTRF assay, Abl kinase; type: biochemical; conditions: 10 μM; compounds tested by Cerep; read-out: % inhibition of kinase activity, Abl WT (category)
measure: inhibition at 10 µM

Some solved entries appear below for comparison.
- structure.smiles: "COC(=O)c1cc2cc(NC(=O)C3CC3)cnc2[nH]1"
  target.or.system: "Abl kinase (h) (Homo sapiens (Human), UniProt P00519)"
  inhibition at 10 µM: "< 10%"
- structure.smiles: "N#Cc1ccccc1NCc1cc2cc(NC(=O)c3ccccc3Br)cnc2[nH]1"
  target.or.system: "Abl kinase (h) (Homo sapiens (Human), UniProt P00519)"
  inhibition at 10 µM: "10 to 50%"
- structure.smiles: "O=C(Nc1cnc2[nH]c(C(=O)NCCN3CCOCC3)cc2c1)c1cccc(F)c1"
  target.or.system: "Abl kinase (h) (Homo sapiens (Human), UniProt P00519)"
  inhibition at 10 µM: "10 to 50%"

// for each molecule in input: emit inhibition at 10 µM
1. O=C(Nc1cnc2[nH]c(C[C@H]3CCCO3)cc2c1)c1ccccc1Br
2. COC(=O)c1cc2cc(NC(=O)c3cccc(F)c3)cnc2[nH]1

1. 10 to 50%
2. 10 to 50%

====

biological target: UniProtKB P12931; test: Cerep kinase profiling, HTRF assay, Src kinase; assay type: biochemical; conditions: compound tested by Cerep; read-out: IC50 on kinase Src (category)
measure: IC50

Suppose we examine the molecule "CN(C)CCCNC(=O)c1cc2cc(NC(=O)c3ccccc3Br)cnc2[nH]1" ; what IC50 value has been reported?
0.1 to 10 µM

====

molecular target: UniProt P12931; experiment: Reaction Biology Corp. kinase assay, Src; conditions: read-out: % inhibition of kinase activity, Src (category), 10 μM; compounds tested by Reaction Biology Corp.
measure: inhibition at 10 µM

Example cases with answers are listed next.
- structure.smiles: "COC(=O)c1cc2cc(NCc3cc[nH]n3)cnc2[nH]1"
  target.or.system: "UniProt P12931"
  inhibition at 10 µM: "> 50%"
- structure.smiles: "COC(=O)c1cc2cc(Nc3cccc(OC)c3)cnc2[nH]1"
  target.or.system: "UniProt P12931"
  inhibition at 10 µM: "10 to 50%"
- structure.smiles: "COC(=O)c1cc2cc(Nc3ccc(Br)cc3)cnc2[nH]1"
  target.or.system: "UniProt P12931"
  inhibition at 10 µM: "10 to 50%"
- structure.smiles: "COC(=O)c1cc2cc(NCc3cccs3)cnc2[nH]1"
  target.or.system: "UniProt P12931"
  inhibition at 10 µM: "> 50%"

# batch size: 2; output inhibition at 10 µM per entry
1. COC(=O)c1cc2cc(NCc3ccccc3C(F)(F)F)cnc2[nH]1
2. COC(=O)c1cc2cc(NCc3ccccc3C)cnc2[nH]1

["> 50%", "> 50%"]

====

Give measured inhibition at 10 µM for each item. Keep answers brief.
biological target: Abl kinase (h) (Homo sapiens (Human), UniProt P00519); assay: Cerep kinase profiling, HTRF assay, Abl kinase; assay type: biochemical; details: 10 μM; compounds tested by Cerep; read-out: % inhibition of kinase activity, Abl WT (category)

Guide cases for inhibition at 10 µM, answers given:
- compound: "O=C(Nc1cnc2[nH]c(CNCc3ccccc3)cc2c1)c1ccccc1Br"
  inhibition at 10 µM: "10 to 50%"
- compound: "COC(=O)c1cc2cc(NC(=O)C(C)C)cnc2[nH]1"
  inhibition at 10 µM: "> 50%"
- compound: "O=C(Nc1cnc2[nH]c(CNc3cccc([N+](=O)[O-])c3)cc2c1)c1ccccc1Br"
  inhibition at 10 µM: "10 to 50%"

Working through the 7 compounds below one at a time, give inhibition at 10 µM for each.
1. CCC(=O)Nc1cnc2[nH]c(C(=O)OC)cc2c1
2. COC(=O)c1cc2cc(NC(=O)c3ccc(-c4csc(C)n4)cc3)cnc2[nH]1
3. COC(=O)c1cc2cc(NC(=O)c3c(F)cccc3OC)cnc2[nH]1
4. Cc1cccc(NCc2cc3cc(NC(=O)c4ccccc4Br)cnc3[nH]2)c1
5. O=C(Nc1cnc2[nH]c(CO)cc2c1)c1ccccc1Br
6. O=C(Nc1cnc2[nH]c(CNc3ccc(O)cc3)cc2c1)c1ccccc1Br
7. COC(=O)c1cc2cc(NC(=O)c3ccccc3Br)cnc2[nH]1

1: 10 to 50%; 2: 10 to 50%; 3: > 50%; 4: 10 to 50%; 5: > 50%; 6: > 50%; 7: > 50%
